All values here come from PubChem BioAssay (NCI).

# Test system: SK-MEL-28 melanoma
# Assay: NCI tumour cell line growth inhibition, 48 h
Measurement Type: TGI

O=C1C(C(O)(C(F)(F)Cl)C(F)(F)Cl)CCC1C(O)(C(F)(F)Cl)C(F)(F)Cl (stereo not given) | > 10 µM

Req: Fill in TGI for record `CCOc1ccc2ccccc2c1NC1=NCCO1`
Resp: > 100 µM

====

# System: UACC-62 melanoma
# Assay: NCI tumour cell line growth inhibition, 48 h
Measurement Type: TGI

Consider the reported TGI for these compounds:
CC(C)C1CC=NN1C(=O)OC(C)(C)C (stereo not drawn) | > 100 µM
O=C1C2=C(c3ccccc31)C(c1cccc(Cl)c1)NC(=S)N2 (stereo not drawn) | > 100 µM
NC(N)=NC(CC(=O)O)c1ccccc1 (stereo not drawn) | > 100 µM
O=C(CCCN1CCC2(CC1)C(=O)NC(=O)N2c1ccccc1)c1ccc(F)cc1 | > 100 µM
O=C(O)C(CS)NCc1c2ccccc2[n+]([O-])c2ccccc12 (stereo not drawn) | > 100 µM

Req: Give the reported value of TGI for this record: `C[C@@H](c1ccc2nccn2c1)n1nnc2ncc(-c3cnn(C)c3)nc21`
Resp: > 100 µM

Req: Tell me its TGI given `N#C/C(=C1\N=C(c2ccccc2O)Oc2ccccc21)c1ccc([N+](=O)[O-])cc1` as the entry.
Resp: > 100 µM

Req: Dear colleague, please send me the reported TGI for `CC(=O)Oc1cc(OC(C)=O)c2c(=O)c3ccccc3n(C)c2c1` when you can.
Resp: > 100 µM

Req: Identify the reported TGI for the following entry. `CCOC(=O)c1c(O)[nH]c(=O)c(CC)c1C`
Resp: > 100 µM

Req: Please list TGI recorded for the compound `O=C1NCC2(CCNCC2)N1c1ccccc1`
Resp: > 100 µM

Req: Please indicate TGI recorded for O=C(O)c1cccc(S(=O)(=O)NN2C(=O)CSC2c2ccccc2)c1 (stereo not drawn)
Resp: > 100 µM

====

# Tested on: CAKI-1 renal
# Assay: NCI tumour cell line growth inhibition, 48 h
Examples of molecules with documented TGI follow.

Here are 6 molecules together with their reported answers.
COc1ncnc2c1cnn2Cc1cn(COCC(O)CO)nn1 (stereo not given) | > 100 µM
COc1cc2c(cc1OC)C1Cc3ccccc3CCN1CC2 (stereo not given) | > 100 µM
O=C(NCCN1C(=O)CN=C(c2ccc(Cl)cc2)c2cc(Cl)ccc21)OCc1ccccc1 | 31.9 µM
CC1(C)N=C(N)N=C(N)N1c1cccc(/C=C/C=C/c2cccc([N+](=O)[O-])c2)c1 | > 100 µM
O/N=C1\CCc2cc(-c3nc(C4CCNCC4)[nH]c3-c3ccncc3)ccc21 | > 25 µM
CC(=O)c1ccc(Nc2cc(-n3ccnc3)nc3ccccc23)cc1 | 7.57 µM

Req: # return recorded TGI for input O=C(CCCc1c[nH]c2ccccc12)NC1CC(=O)c2c(Br)sc(Br)c21 (stereo not given)
Resp: 31.6 µM

Req: Report TGI for `O=C1/C(=C\c2ccc(Cl)cc2)CN(C(=S)Nc2ccccc2)C/C1=C\c1ccc(Cl)cc1`
Resp: > 29.2 µM

Req: Could you please provide reported TGI for `Cc1cc(S(N)(=O)=O)c(SCc2nc(N)nc(N(C)C)n2)cc1Cl` ? Thanks!
Resp: > 10 µM

Req: Consider the molecule COc1cc2c(cc1OC)C(=O)C(Br)CC2 (stereo not given) and give its recorded TGI.
Resp: 12.4 µM

Req: Indicate its recorded TGI; the molecule in question is CC(=O)OC1/C(=C/c2ccc([N+](=O)[O-])cc2)C[C@H]2[C@@H]3CC=C4C[C@@H](OC(C)=O)CC[C@]4(C)[C@H]3CC[C@]12C (stereo not given in full)
Resp: > 100 µM

Req: Report measured TGI; entry is `COc1ccccc1C(=O)/C=C/c1cc2cccc(OC)c2[nH]c1=O`
Resp: 1.54 µM
